Recorded kon by entry
Molecular target: T1, recombinant human PD-L1 (human, UniProt Q9NZQ7 19-238)
T1 construct: the whole natural entry is named
T1 sequence (Q9NZQ7 19-238 limits assumed): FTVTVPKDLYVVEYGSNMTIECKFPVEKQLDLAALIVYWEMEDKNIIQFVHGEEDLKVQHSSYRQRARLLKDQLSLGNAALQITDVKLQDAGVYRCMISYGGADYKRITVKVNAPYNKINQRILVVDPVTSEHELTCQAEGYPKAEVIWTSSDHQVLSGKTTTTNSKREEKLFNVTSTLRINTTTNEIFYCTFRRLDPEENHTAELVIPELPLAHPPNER
Experiment: SPR (ProteOn XPR36), antibody captured on Protein A, human PD-L1 as analyte, 1:1 Langmuir fit
Provide only the numeric value, understood in M⁻¹ s⁻¹.

Worked examples, 3 binders total:
binder	kon (M⁻¹ s⁻¹)
2.74.15.hAb8 (antibody, V domains shown, Humanized antibody with a human constant region of IgG4 isotype) VH: QVQLQESGPGLVKPSETLSLTCTVSGYSITSGYIWHWIRQPPGKGLEWIGYIHYSGTTDFNPSLESRVTISVDTSKNQFSLKLSSVTAADTAVYYCAREGRSYGGFAYWGQGTLVTVSS VL: DIQMTQSPSSLSASVGDRVTITCKASQSVSNGVAWYQQKPGKVPKLLIYYASNRFTGVPSRFSGSGSGTDFTLTISSLQPEDVATYYCQQDYSSPFTFGQGTKLEIK	811000
2.74.15.hAb4 (antibody, V domains shown, Humanized antibody with a human constant region of IgG4 isotype) VH: QVQLQESGPGLVKPSETLSLTCTVSGYSITSGYIWHWIRQPPGKGLEWIGYIHYSGTTDFNPSLESRVTISVDTSKNQFSLKLSSVTAADTAVYYCAREGRSYGGFAYWGQGTLVTVSA VL: SFVMTQSPSSLSASVGDRVTITCKASQSVSNGVAWYQQKPGKVPKLLIYYASNRFTGVPSRFSGSGSGTDFTLTISSLQPEDVATYYCQQDYSSPFTFGSGTELEIK	728000
2.74.15.hAb7 (antibody, V domains shown, Humanized antibody with a human constant region of IgG4 isotype) VH: QVQLQESGPGLVKPSETLSLTCTVSGYSITSGYIWHWIRQPPGKGLEWIGYIHYSGTTDFNPSLESRVTISVDTSKNQFSLKLSSVTAADTAVYYCAREGRSYGGFAYWGQGTLVTVSS VL: DIQLTQSPSFLSASVGDRVTITCKASQSVSNGVAWYQQKPGKAPKLLIYYASNRFTGVPSRFSGSGSGTEFTLTISSLQPEDFATYYCQQDYSSPFTFGQGTKLEIK	938000

Proceed to the following item.
Could you tell me which kon is on file for 2.74.15.hAb6 (antibody, V domains shown, Humanized antibody with a human constant region of IgG4 isotype) VH: QVQLQESGPGLVKPSETLSLTCTVTGYSITSGYIWHWIRQPAGKGLEWIGYIHYSGTTDFNPSLESRVTISVDTSKNQFSLKLSSVTAADTAVYYCAREGRSYGGFAYWGQGTLVTVSS VL: DIQMTQSPSSLSASVGDRVTITCKASQSVSNGVAWYQQKPGKVPKLLIYYASNRFTGVPSRFSGSGSGTDFTLTISSLQPEDVATYYCQQDYSSPFTFGQGTKLEIK ?
1.16e+06

All figures here come from patent US20180162944A1.
